# target-or-system: telomerase (Homo sapiens)
# Sequence (O14746 whole entry): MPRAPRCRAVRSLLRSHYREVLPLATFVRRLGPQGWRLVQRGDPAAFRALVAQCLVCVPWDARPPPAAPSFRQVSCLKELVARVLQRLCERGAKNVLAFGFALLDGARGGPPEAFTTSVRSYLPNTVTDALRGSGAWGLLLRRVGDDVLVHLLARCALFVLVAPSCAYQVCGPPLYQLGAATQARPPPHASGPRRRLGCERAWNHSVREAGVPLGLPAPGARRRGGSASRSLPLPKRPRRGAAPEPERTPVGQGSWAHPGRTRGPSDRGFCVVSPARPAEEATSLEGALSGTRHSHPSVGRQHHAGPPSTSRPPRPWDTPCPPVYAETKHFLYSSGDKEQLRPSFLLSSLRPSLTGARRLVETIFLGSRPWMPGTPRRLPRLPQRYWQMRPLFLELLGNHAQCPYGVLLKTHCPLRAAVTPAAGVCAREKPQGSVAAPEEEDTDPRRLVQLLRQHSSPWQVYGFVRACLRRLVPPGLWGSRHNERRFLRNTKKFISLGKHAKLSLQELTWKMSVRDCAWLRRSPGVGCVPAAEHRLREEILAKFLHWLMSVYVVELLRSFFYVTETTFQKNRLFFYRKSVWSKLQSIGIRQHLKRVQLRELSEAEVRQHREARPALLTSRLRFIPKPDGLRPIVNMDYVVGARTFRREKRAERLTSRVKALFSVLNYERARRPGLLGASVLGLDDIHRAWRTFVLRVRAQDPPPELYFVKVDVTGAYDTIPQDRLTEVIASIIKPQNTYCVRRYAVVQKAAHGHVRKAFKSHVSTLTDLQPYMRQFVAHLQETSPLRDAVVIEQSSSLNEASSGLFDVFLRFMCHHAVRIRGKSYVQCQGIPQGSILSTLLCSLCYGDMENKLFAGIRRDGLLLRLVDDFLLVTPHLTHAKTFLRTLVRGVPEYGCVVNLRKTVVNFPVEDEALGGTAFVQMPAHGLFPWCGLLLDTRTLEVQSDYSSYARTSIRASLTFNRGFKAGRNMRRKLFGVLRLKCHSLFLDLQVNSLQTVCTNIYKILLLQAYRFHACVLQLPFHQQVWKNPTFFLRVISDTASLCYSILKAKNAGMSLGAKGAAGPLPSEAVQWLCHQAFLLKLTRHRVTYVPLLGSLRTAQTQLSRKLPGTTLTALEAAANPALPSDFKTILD
# test-description: Telomeric Repeat Amplification Protocol (TRAP) assay, cell-free
# experimental-context: 0.5 μg total cell extract from H1299 human lung cancer cells, FIG. 1
Counter-ions that a name gives are not always drawn.
outcome-measure: concentration that completely inhibited telomerase activity

- molecule: "NCCCN1CCN(CCCNc2nc3ccccc3c3[nH]c4ccccc4c23)CC1 [Compound 6, hydrochloride]"
  experimental-result: "approximately 0.02 nM"
- molecule: "COc1ccc(CCNc2nc3ccccc3c3[nH]c4ccccc4c23)cc1OC [Compound 7c, hydrochloride]"
  experimental-result: "approximately 2 nM"
- molecule: "c1ccc2c(c1)nc(NCCN1CCNCC1)c1c3ccccc3[nH]c21 [Compound 5]"
  experimental-result: "approximately 0.02 nM"
- molecule: "Oc1ccc(CCNc2nc3ccccc3c3[nH]c4ccccc4c23)cc1 [Compound 7a, hydrochloride]"
  experimental-result: "approximately 2 nM"
- molecule: "CN(CCCNc1nc2ccccc2c2[nH]c3ccccc3c12)CCCNc1nc2ccccc2c2[nH]c3ccccc3c12.Cl [Compound 8b]"
  experimental-result: "approximately 0.02 nM"
- molecule: "Cl.c1ccc2c(c1)nc(NCCCNCCCNc1nc3ccccc3c3[nH]c4ccccc4c13)c1c3ccccc3[nH]c21 [Compound 8a]"
  experimental-result: "approximately 0.02 nM"

----------
Reported GI50, COLO 205.
Structures can show the parent of a compound that is named as a salt.

- compound: "Cl.OCCNCCNc1nc2ccccc2c2[nH]c3ccccc3c12 [Compound 9, hydrochloride]"
  GI50 [nM]: 1760
- compound: "Cl.Nc1nc2ccccc2c2[nH]c3ccccc3c12 [Compound 7e, hydrochloride]"
  GI50 [nM]: 1070
- compound: "NCCCN1CCN(CCCNc2nc3ccccc3c3[nH]c4ccccc4c23)CC1 [Compound 6, hydrochloride]"
  GI50 [nM]: 210
- compound: "c1ccc2c(c1)nc(NCCN1CCNCC1)c1c3ccccc3[nH]c21"
  GI50 [nM]: 220

----------
Counter-ions that a name gives are not always drawn.
Let's go through some recorded GI50 values for HCT-116 together.
outcome-measure: GI50 (nM)

- compound: "CN(CCCNc1nc2ccccc2c2[nH]c3ccccc3c12)CCCNc1nc2ccccc2c2[nH]c3ccccc3c12.Cl [Compound 8b, hydrochloride]"
  outcome-measure: "GI50"
  qual: "<"
  experimental-result: 10
- compound: "Cl.OCCNc1nc2ccccc2c2[nH]c3ccccc3c12 [Compound 7d, hydrochloride]"
  outcome-measure: "GI50"
  qual: "="
  experimental-result: 230
- compound: "Cl.Nc1nc2ccccc2c2[nH]c3ccccc3c12 [Compound 7e, hydrochloride]"
  outcome-measure: "GI50"
  qual: "="
  experimental-result: 500
- compound: "Cl.OCCNCCNc1nc2ccccc2c2[nH]c3ccccc3c12 [Compound 9, hydrochloride]"
  outcome-measure: "GI50"
  qual: "="
  experimental-result: 190
- compound: "c1ccc2c(c1)nc(NCCN1CCNCC1)c1c3ccccc3[nH]c21"
  outcome-measure: "GI50"
  qual: "="
  experimental-result: 70
- compound: "Oc1ccc(CCNc2nc3ccccc3c3[nH]c4ccccc4c23)cc1 [Compound 7a, hydrochloride]"
  outcome-measure: "GI50"
  qual: "="
  experimental-result: 1220
- compound: "CN(CCCN)CCCNc1nc2ccccc2c2[nH]c3ccccc3c12 [Compound 10, hydrochloride]"
  outcome-measure: "GI50"
  qual: "="
  experimental-result: 80
- compound: "Cl.c1ccc2c(c1)nc(NCCCNCCCNc1nc3ccccc3c3[nH]c4ccccc4c13)c1c3ccccc3[nH]c21 [Compound 8a, hydrochloride]"
  outcome-measure: "GI50"
  qual: "="
  experimental-result: 170
- compound: "NCCCN1CCN(CCCNc2nc3ccccc3c3[nH]c4ccccc4c23)CC1 [Compound 6, hydrochloride]"
  outcome-measure: "GI50"
  qual: "="
  experimental-result: 180
